# maps each entry to its Activity in Promoting CTLL-2 Cell Proliferation (EC50, nM)
Study Target: T1, high-affinity IL2R expressed on the surface of CTLL-2 cells
T1 sequence (P01590 whole entry, species assumed, looked up): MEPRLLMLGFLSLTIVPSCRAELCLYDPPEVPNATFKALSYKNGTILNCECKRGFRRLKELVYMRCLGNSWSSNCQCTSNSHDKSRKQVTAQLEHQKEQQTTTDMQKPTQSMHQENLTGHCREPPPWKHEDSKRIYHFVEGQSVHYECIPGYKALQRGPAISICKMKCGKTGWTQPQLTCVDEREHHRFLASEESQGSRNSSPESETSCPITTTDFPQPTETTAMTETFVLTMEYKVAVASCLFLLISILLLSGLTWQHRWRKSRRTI
T1 sequence (P16297 whole entry, species assumed, looked up): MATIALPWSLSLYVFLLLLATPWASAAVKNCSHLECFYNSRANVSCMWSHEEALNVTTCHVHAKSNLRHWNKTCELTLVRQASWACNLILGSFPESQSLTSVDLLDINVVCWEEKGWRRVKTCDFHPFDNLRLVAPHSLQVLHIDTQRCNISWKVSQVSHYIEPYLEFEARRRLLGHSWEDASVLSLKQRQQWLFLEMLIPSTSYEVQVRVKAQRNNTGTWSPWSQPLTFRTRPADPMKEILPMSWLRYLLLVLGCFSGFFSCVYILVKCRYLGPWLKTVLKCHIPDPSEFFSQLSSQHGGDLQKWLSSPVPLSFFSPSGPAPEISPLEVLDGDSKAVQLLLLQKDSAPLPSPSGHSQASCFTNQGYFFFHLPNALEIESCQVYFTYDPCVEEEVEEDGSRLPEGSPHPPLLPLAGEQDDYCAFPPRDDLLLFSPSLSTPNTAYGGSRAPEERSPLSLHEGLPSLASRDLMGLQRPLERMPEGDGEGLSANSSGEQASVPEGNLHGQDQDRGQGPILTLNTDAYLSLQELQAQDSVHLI
T1 sequence (P34902 whole entry, species assumed, looked up): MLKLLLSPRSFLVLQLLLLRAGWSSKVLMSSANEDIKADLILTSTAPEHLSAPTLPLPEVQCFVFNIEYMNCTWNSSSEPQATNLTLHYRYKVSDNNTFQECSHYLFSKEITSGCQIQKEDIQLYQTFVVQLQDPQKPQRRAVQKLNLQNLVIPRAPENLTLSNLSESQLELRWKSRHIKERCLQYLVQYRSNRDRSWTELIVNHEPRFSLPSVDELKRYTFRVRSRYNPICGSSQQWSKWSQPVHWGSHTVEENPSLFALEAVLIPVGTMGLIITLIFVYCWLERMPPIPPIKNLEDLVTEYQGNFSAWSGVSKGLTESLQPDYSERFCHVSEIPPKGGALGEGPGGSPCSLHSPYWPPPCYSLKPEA
Protocol Summary: cell-based or functional assay
Measured Attribute: Activity in Promoting CTLL-2 Cell Proliferation (EC50, nM)

[[record]]
binder = "hIL2-DM (Δ3, C125L) (ligand, first three N-terminal residues (APT) deleted; also called hIL2-DM (Δ3, 125L); hIL2-DM (Δ3, C125L) mutein) SSSTKKTQLQLEHLLLDLQMILNGINNYKNPKLTRMLTFKFYMPKKATELKHLQCLEEELGPLEEVLNLAQSKNFHLRPRDLISNIRVIVLELKGSETTFMCEYADETATIVEFLNRWITFLQSIISTLT"
result = "0.156 nM"

[[record]]
binder = "K2G11-Cy04 (other) heavy: SSSTKKTQLQLEHLLLDLQMILNGINNYKNPKLTRMLTFKFYMPKKATELKHLQCLEEELGPLEEVLNLAQSKNFHLRPRDLISNIRVIVLELKGSETTFCCEYADETATIVEFLNRWITFLQSIISTLTGGGGSGGGGSGGGGSGGGGSQVQLVQSGAEVKKPGATVKISCKVSGDTITAYYMHWVRQAPGQGLEWIGRIDPDDDSTKYAENFKGRVTITADTSTDTAYMELSSLRSEDTAVYYCTTITFLYSRELRWFAYWGQGTLVTVSS VL: DIVLTQSPATLSLSPGERATLSCQASQYISNYLSWYQQKPGQAPRLLIYSACSLASGIPARFSGSRSGTDFTLTISSLEPEDFAVYYCLQHYSTPYTFGQGTKLEIK"
result = "9.17 nM"

[[record]]
binder = "IC-Cy08 (other, hIL-2/anti-IL-2 antibody fusion protein, disulfide IL:65-H:97; also called H6K3(H)-Cy08; H6K3(H)-Cy-08) heavy: APTSSSTKKTQLQLEHLLLDLQMILNGINNYKNPKLTRMLTFKFYMPKKATELKHLQCLEEELGCLEEVLNLAQSKNFHLRPRDLISNIRVIVLELKGSETTFMCEYADETATIVEFLNRWITFCQSIISTLTGGGGSGGGGSGGGGSGGGGSQVQLVQSGAEVKKPGATVKISCKVSGDTITAYYMHWVRQAPGQGLEWIGRIDPEDDSTKYAENFKGRVTITADTSTDTAYMELSSLRSEDTAVYYCTTVTCYYSRELRWFAYWGQGTLVTVSS VL: DIVLTQSPATLSLSPGERATLSCQASQDIGNYLSWYQQKPGQAPRLLIYSATSLASGIPARFSGSRSGTDFTLTISSLEPEDFAVYYCLQHYSTPYTFGQGTKLEIK"
result = "0.425 nM"

[[record]]
binder = "K2G11-Cy06 (other, hIL2-DM (Δ3, C125L) fused to the heavy chain of K2G11, disulfide IL:102-L:68) heavy: SSSTKKTQLQLEHLLLDLQMILNGINNYKNPKLTRMLTFKFYMPKKATELKHLQCLEEELGPLEEVLNLAQSKNFHLRPRDLISNIRVIVLELKGSETCFMCEYADETATIVEFLNRWITFLQSIISTLTGGGGSGGGGSGGGGSGGGGSQVQLVQSGAEVKKPGATVKISCKVSGDTITAYYMHWVRQAPGQGLEWIGRIDPDDDSTKYAENFKGRVTITADTSTDTAYMELSSLRSEDTAVYYCTTITFLYSRELRWFAYWGQGTLVTVSS VL: DIVLTQSPATLSLSPGERATLSCQASQYISNYLSWYQQKPGQAPRLLIYSATSLASGIPARFSGSRSCTDFTLTISSLEPEDFAVYYCLQHYSTPYTFGQGTKLEIK"
result = "5.77 nM"

